Test system: NCI/ADR-RES
Measurement Protocol: NCI 60 cell line panel screen (SRB)
Format: cell-based, human
Measurement Conditions: NCI/ADR-RES (Breast Cancer); LC50: PG=−50
Quantity Name: Log10LC50

Data request: Could you tell me which Log10LC50 is on file for CC(=O)O[C@H]1C(=O)[C@@]2(C)[C@H]([C@H](OC(=O)c3ccccc3)[C@]3(O)C[C@H](OC(=O)[C@H](O)[C@@H](NC(=O)c4ccccc4)c4ccccc4)C(C)=C1C3(C)C)[C@]1(OC(C)=O)CO[C@@H]1C[C@@H]2O [Paclitaxel, paclitaxel, reference compound] ?
Data returned: >−4.00 log10M

Data request: Could you tell me which Log10LC50 is on file for CC1CCC2C(C)C(CC(COC(=O)c3cc[n+]([O-])cc3)CC3OC4OC5(C)CCC6C(C)CCC(C3C)C46OO5)OC3OC4(C)CCC1C32OO4 (centres unmarked) ?
Data returned: −4.65 log10M

Data request: Could you tell me which Log10LC50 is on file for C[C@@H]1CC[C@H]2[C@@H](C)C(CC(O)(COC(=O)CCC(=O)O)CC3OC4O[C@]5(C)CC[C@H]6[C@H](C)CC[C@@H]([C@H]3C)C46OO5)OC3O[C@]4(C)CCC1C32OO4 (some centres unmarked) [Compound 9, tertiary alcohol primary succinate ester] ?
Data returned: >−4.30 log10M

Data request: Could you tell me which Log10LC50 is on file for CC1CCC2C(C)C(CC(O)(CO)CC3OC4OC5(C)CCC6C(C)CCC(C3C)C46OO5)OC3OC4(C)CCC1C32OO4 (centres unmarked) ?
Data returned: >−4.00 log10M

Data request: Could you tell me which Log10LC50 is on file for CC1CCC2C(C)C(CC(COC(=O)CCC(=O)O)CC3OC4OC5(C)CCC6C(C)CCC(C3C)C46OO5)OC3OC4(C)CCC1C32OO4 (centres unmarked) [Compound 8a, bis-trioxane primary succinate monoester] ?
Data returned: >−4.30 log10M

Data request: Could you tell me which Log10LC50 is on file for C[C@@H]1CC[C@H]2[C@@H](C)C(CC(O)(CC3OC4O[C@]5(C)CC[C@H]6[C@H](C)CC[C@@H]([C@H]3C)C46OO5)c3ccc(C(=O)O)cc3)OC3O[C@]4(C)CCC1C32OO4 (some centres unmarked) [Compound 11b] ?
Data returned: >−4.30 log10M

Data request: Could you tell me which Log10LC50 is on file for CC1CCC2C(C)C(CC(CO)CC3OC4OC5(C)CCC6C(C)CCC(C3C)C46OO5)OC3OC4(C)CCC1C32OO4 (centres unmarked) ?
Data returned: −4.52 log10M

Data request: Could you tell me which Log10LC50 is on file for CC1CCC2C(C)C(CC(O)(CC3OC4OC5(C)CCC6C(C)CCC(C3C)C46OO5)CS(=O)(=O)c3ccc(C(=O)O)cc3)OC3OC4(C)CCC1C32OO4 (centres unmarked) [Compound 10c] ?
Data returned: −4.63 log10M

FYI, the data here is from patent US7417156B2.
